- assay.target: T1, human FcRH5 protein fragment (soluble) (human, UniProt Q96RD9 16-851)
- T1 construct: whole entry named; also called soluble human FcRH5; Human FcRH5 (BIACORE analyte)
- T1 sequence: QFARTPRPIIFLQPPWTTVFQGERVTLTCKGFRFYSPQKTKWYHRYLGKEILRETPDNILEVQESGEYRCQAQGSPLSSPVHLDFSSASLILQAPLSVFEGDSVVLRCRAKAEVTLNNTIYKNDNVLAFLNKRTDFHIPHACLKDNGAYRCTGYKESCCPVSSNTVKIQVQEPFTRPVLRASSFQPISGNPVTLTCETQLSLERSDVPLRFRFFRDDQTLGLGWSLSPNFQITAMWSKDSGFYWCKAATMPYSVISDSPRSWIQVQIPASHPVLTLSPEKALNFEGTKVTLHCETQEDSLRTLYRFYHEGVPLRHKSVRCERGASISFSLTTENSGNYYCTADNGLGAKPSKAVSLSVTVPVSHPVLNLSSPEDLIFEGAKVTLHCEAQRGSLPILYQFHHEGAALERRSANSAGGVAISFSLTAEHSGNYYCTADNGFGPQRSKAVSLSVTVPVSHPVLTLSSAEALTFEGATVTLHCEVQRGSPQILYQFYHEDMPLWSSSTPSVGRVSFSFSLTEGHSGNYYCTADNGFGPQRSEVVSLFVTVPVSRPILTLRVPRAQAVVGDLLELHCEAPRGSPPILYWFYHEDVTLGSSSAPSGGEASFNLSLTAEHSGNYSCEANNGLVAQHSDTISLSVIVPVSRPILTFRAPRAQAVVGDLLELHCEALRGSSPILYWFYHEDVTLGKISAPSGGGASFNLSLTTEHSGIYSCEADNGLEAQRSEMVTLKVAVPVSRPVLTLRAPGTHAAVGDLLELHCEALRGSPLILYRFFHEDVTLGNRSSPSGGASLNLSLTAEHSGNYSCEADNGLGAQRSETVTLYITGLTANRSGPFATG
- test.summary: BIACORE, human IgG1, soluble human FcRH5
pKd: −log10 of the molar value.
measured.metric: pKd

[[record]]
binder = "hu1G7.v93 (antibody, human IgG1, V domains shown, human IgG1) VH: EVQLVESGPGLVKPSETLSLTCTVSGFSTTRFGVHWVRQPPGKGLEWLGVIWRGGSTDYNAAFVSRLTISKDNSKNQVSLKLSSVTAADTAVYYCSNHYYGSPDYALDNWGQGTLVTVSS VL: DIQMTQSPSSLSASVGDRVTITCKASQDVSNLVVWFQQKPGKAPKLLIYSGSYRYSGVPSRFSGSGSGTDFTLTISSLQPEDFATYYCQQHYSPPYTFGQGTKVEIK"
reported_value = 9.22

[[record]]
binder = "1G7.v1H (antibody, human IgG1, V domains shown, human IgG1 with the light chain of hu1G7.v1; also called H (hu1G7.v1 heavy chain S65D)) VH: EVQLVESGPGLVKPSETLSLTCTVSGFSLTRFGVHWVRQPPGKGLEWLGVIWRGGSTDYNAAFMDRLTISKDNSKNQVSLKLSSVTAADTAVYYCSNHYYGSSDYALDNWGQGTLVTVSS VL: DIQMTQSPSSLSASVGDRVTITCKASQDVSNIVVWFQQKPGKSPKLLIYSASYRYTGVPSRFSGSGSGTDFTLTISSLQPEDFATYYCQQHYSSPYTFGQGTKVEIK"
reported_value = 7.82

[[record]]
binder = "1G7.v1C (antibody, human IgG1, V domains shown, human IgG1 with the light chain of hu1G7.v1; also called C (hu1G7.v1 heavy chain S28P)) VH: EVQLVESGPGLVKPSETLSLTCTVSGFPLTRFGVHWVRQPPGKGLEWLGVIWRGGSTDYNAAFMSRLTISKDNSKNQVSLKLSSVTAADTAVYYCSNHYYGSSDYALDNWGQGTLVTVSS VL: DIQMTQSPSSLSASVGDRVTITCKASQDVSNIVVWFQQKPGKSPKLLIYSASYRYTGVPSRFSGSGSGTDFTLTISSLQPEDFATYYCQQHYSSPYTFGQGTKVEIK"
reported_value = 7.88

